Taken from patent US20070179135A1.

Consider the following molecules and their measured CC50 readings.
test system: Monocyte/macrophage; assay: XTT viability (TC50) in monocyte/macrophage assay; settings: read-out: TC50 (50% cytotoxicity), column head blank

Answered examples (2):
molecule	measurement.target	value.kind	observed.value
Nc1ccn([C@H]2CC[C@@H](CO)O2)c(=O)n1 [DdC, reference compound]	Monocyte/macrophage	CC50	> 10 µM
CCCCCc1cc(O)cc(O)c1	Monocyte/macrophage	CC50	75.9 µM

# context switch: different molecule, same CC50
The molecule Cc1cn([C@H]2C[C@H](N=[N+]=[N-])[C@@H](CO)O2)c(=O)[nH]c1=O [AZT, reference compound] showed CC50 equal to > 4 µM
